Just for reference, patent US8389552B2 is where these values come from.

- SYSTEM UNDER TEST: Full-length glucokinase (beta cell isoform) (Homo sapiens, UniProt P35557)
- Construct: Full-length glucokinase (beta cell isoform) was His-tagged at N-terminus; His tag (N); made in house; host or cells: E. coli BL21(DE3), pBCGK vector
- Sequence (P35557 whole entry, canonical isoform): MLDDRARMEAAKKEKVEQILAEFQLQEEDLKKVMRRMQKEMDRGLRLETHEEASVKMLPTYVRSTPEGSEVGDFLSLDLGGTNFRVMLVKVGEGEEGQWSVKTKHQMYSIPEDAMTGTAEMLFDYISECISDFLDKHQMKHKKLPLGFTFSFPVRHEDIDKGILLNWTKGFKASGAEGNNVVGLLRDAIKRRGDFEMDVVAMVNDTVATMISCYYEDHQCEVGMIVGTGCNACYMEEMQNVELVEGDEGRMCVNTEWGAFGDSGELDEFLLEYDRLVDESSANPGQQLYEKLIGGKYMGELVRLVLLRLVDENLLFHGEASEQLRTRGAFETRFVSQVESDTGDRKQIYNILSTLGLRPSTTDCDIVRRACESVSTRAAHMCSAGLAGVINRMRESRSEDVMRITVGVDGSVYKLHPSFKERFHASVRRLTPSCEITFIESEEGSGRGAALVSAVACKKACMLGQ
- ASSAY TEXT: Glucokinase activation assay (PK/LDH-coupled, NADH depletion at 340 nm)
- Format: biochemical
MEASURE NAME: EC50

# COMPOUND, MEASURE NAME, OBSERVED VALUE
measured = [
    ("CCOP(=O)(Cc1ccc(NC(=O)[C@H](CC2CCCC2)n2cnc(C(F)(F)F)c2)nc1)OCC [Example 58]", "EC50", "3.4 µM"),
]

Lab note: measured EC50 of CCOP(=O)(OCC)c1ccc(NC(=O)[C@H](CC2CCCC2)n2cnc(C(F)(F)F)c2)nc1 [Example 59] was 14 µM
